Target: ACAT in M.phi. (acyl-CoA: cholesterol acyl transferase) (Mus musculus)
Construct: endogenous in cells; host or cells: primary adherent peritoneal macrophages from unstimulated female DDY mice
Sequence (Q61263 1-540): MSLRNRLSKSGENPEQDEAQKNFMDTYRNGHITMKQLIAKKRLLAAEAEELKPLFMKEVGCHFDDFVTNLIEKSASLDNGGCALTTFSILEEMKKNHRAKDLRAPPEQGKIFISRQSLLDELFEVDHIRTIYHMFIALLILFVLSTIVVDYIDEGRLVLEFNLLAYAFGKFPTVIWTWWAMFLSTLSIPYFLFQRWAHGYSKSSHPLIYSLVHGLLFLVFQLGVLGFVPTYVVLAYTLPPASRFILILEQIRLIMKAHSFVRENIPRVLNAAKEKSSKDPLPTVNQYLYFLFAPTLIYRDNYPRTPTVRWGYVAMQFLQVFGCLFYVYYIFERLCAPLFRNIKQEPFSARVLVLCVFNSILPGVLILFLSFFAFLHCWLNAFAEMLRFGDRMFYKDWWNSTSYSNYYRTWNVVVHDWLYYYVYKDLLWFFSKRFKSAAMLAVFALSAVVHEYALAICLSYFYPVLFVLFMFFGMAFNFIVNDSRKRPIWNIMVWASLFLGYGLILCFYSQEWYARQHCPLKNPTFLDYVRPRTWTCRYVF
Test: Inhibition of ACAT in mouse macrophages (M.phi.), cholesterol [14C]oleate formation
Format: cell-based
Design: dose or concentration left out as unconfirmed
Conditions: mouse peritoneal macrophages, beta-VLDL, 37° C., 3 hours
recorded_endpoint: inhibition (%)
Give bare numbers, in %.

Consider the reported inhibition for these compounds:
CC(C)c1cccc(CCC(O)CCCC2CCCCC2)c1NC(=O)CC1c2ccccc2Oc2ccccc21 (stereo not shown)	85
CC(C)(C)c1ccc(CCC(O)CCCCC2CCCCC2)cc1NC(=O)CC1c2ccccc2Oc2ccccc21 (stereo not shown)	89
CC(C)c1cccc(C(C)C)c1NC(=O)CC1c2ccccc2Oc2ccccc21 [Compound A, reference compound]	51

As a next step, examine the compound that follows.
GET /values?readout=inhibition&item= CC(C)(C)c1ccc(CCC(O)CCC2CCCCC2)cc1NC(=O)CC1c2ccccc2Oc2ccccc21 (stereo not shown)
77

----------
Target: ACAT in M.phi. (acyl-CoA: cholesterol acyl transferase) (Mus musculus, UniProt Q61263)
Construct: endogenous in cells; host or cells: primary adherent peritoneal macrophages from unstimulated female DDY mice
Sequence (Q61263 1-540): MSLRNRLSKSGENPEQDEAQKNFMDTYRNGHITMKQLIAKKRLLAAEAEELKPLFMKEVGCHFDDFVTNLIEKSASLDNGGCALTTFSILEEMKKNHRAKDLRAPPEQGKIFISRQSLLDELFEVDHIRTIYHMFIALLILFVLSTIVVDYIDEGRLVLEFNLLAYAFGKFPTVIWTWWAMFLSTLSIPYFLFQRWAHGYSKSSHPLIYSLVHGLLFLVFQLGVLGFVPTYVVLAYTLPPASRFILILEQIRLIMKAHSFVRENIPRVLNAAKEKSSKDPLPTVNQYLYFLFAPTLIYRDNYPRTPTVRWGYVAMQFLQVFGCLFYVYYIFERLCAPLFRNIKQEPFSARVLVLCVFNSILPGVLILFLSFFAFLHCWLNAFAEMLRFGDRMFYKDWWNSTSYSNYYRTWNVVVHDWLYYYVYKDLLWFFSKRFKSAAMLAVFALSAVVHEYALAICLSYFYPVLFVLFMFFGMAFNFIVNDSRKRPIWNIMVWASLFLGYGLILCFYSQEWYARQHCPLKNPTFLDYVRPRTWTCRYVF
Test: Inhibition of ACAT in mouse macrophages (M.phi.), cholesterol [14C]oleate formation
Assay type: cell-based
Parameters: dose or concentration left out as unconfirmed
Conditions: mouse peritoneal macrophages, beta-VLDL, 37° C., 3 hours
recorded_endpoint: inhibition (%)
Give bare numbers, in %.

Items follow; give inhibition for each.
1. CC(C)(C)c1ccc(CCC(=O)CC2CCCCC2)cc1NC(=O)CC1c2ccccc2Oc2ccccc21 [Example 13]
2. CC(C)(C)c1ccc(CCC(O)CCOC2CCCCC2)cc1NC(=O)CC1c2ccccc2Oc2ccccc21 (stereo not shown) [Example 217]
3. CC(C)(C)c1ccc(CCC(O)COCCC2CCCCC2)cc1NC(=O)CC1c2ccccc2Oc2ccccc21 (stereo not shown) [Example 219]
4. CC(C)(C)c1ccc(CCC(O)C2CCCCCC2)cc1NC(=O)CC1c2ccccc2Oc2ccccc21 (stereo not shown) [Example 98]

1. 80
2. 74
3. 86
4. 81
